System: SN12C renal
Experiment: NCI tumour cell line growth inhibition, 48 h
quantity_kind: TGI

[[record]]
compound = "CN(C)c1ccc(/C=C2\\N=C(NN)NC2=O)cc1"
quantity_kind = "TGI"
recorded_measurement = "> 100 µM"

[[record]]
compound = "CCOc1cc(NC(C)=O)ccc1C(=O)NN1C(=O)C(Oc2ccccc2)C1c1ccccc1 (stereo not given)"
quantity_kind = "TGI"
recorded_measurement = "> 100 µM"

[[record]]
compound = "Cc1c2c(cc3c1[nH]c1ccccc13)C=NCC2"
quantity_kind = "TGI"
recorded_measurement = "62.6 µM"

[[record]]
compound = "N=C(N=C(N)N)N1CCN(c2ccncc2)CC1"
quantity_kind = "TGI"
recorded_measurement = "> 1000 µM"

[[record]]
compound = "O=C(CN1CCN(Cc2ccccc2)CC1)N1CCCn2c1nc1ccccc1c2=O"
quantity_kind = "TGI"
recorded_measurement = "> 100 µM"

[[record]]
compound = "COc1ccccc1C1SCC(=O)N1c1ccc(-c2ccc(-n3c(-c4ccccc4)nc4ccccc4c3=O)cc2)cc1 (stereo not given)"
quantity_kind = "TGI"
recorded_measurement = "> 100 µM"

[[record]]
compound = "Cc1cc(C)c(C[N+](C)(C)C)c(C)c1C"
quantity_kind = "TGI"
recorded_measurement = "23.4 µM"

[[record]]
compound = "COc1ccc(S(=O)(=O)O)cc1-n1nc(C(=O)Nc2ccccc2)n[n+]1-c1cc(S(=O)(=O)[O-])ccc1OC"
quantity_kind = "TGI"
recorded_measurement = "> 100 µM"

[[record]]
compound = "C(=N\\OCc1ccccc1)/c1ncccc1C1OCCO1"
quantity_kind = "TGI"
recorded_measurement = "> 100 µM"

[[record]]
compound = "O=S(=O)(NCC1CCC(CNc2ccc(Cl)cc2)CC1)c1ccc(-c2ccccc2)cc1 (stereo not given)"
quantity_kind = "TGI"
recorded_measurement = "> 50 µM"

[[record]]
compound = "O=C1O/C(=C(\\Br)c2cccc3ccccc23)c2ccccc21"
quantity_kind = "TGI"
recorded_measurement = "47.2 µM"

[[record]]
compound = "O=c1cc2ccccc2nn1Cc1ccccc1Cl"
quantity_kind = "TGI"
recorded_measurement = "> 100 µM"

[[record]]
compound = "FC(F)(F)c1ccccc1N1CCN(c2nc(-c3cccs3)nc3ccc(Br)cc23)CC1"
quantity_kind = "TGI"
recorded_measurement = "> 100 µM"

[[record]]
compound = "Nc1ccc2c(c1)NCCN2"
quantity_kind = "TGI"
recorded_measurement = "> 100 µM"

[[record]]
compound = "CC(=O)O[C@H]1CC[C@@]2(C)C(=CC[C@H]3C4=CC=C(C(C)=O)[C@@]4(C)CCC32)C1 (stereo not given in full)"
quantity_kind = "TGI"
recorded_measurement = "> 100 µM"

[[record]]
compound = "COc1cc2c3c(n(CCCNCCN)c(=O)c2cc1OC)-c1cc2c(cc1C3=O)OCO2"
quantity_kind = "TGI"
recorded_measurement = "4.35 µM"

[[record]]
compound = "CCOC(=O)c1[nH]c(-c2ccc(Cl)cc2)cc1-c1cccnc1"
quantity_kind = "TGI"
recorded_measurement = "> 100 µM"

[[record]]
compound = "CO/C1=C\\C(C)=C\\C(C)C(O)C(C)C/C(C)=C/C=C/C(OC)C(C(C)C(O)C(C)C2(O)CC(O)C(C)C(C(C)C)O2)OC1=O (stereo not given)"
quantity_kind = "TGI"
recorded_measurement = "17.6 µM"

[[record]]
compound = "O=C(NCCCNc1cc(-c2cn(-c3ccccc3)nc2-c2cccc(O)c2)ccn1)c1ccccc1"
quantity_kind = "TGI"
recorded_measurement = "> 100 µM"

[[record]]
compound = "CC1=C[C@H]2c3c(c(O)c(O)c4oc5ccccc5c(=O)c34)[C@H](c3cc(O)c(O)c4oc5ccccc5c(=O)c34)[C@H]2C(C)(C)C1"
quantity_kind = "TGI"
recorded_measurement = "6.71 µM"


###

Tested on: CAKI-1 renal
Test: NCI tumour cell line growth inhibition, 48 h
quantity_kind: log10 of TGI (log10 of the value in µM)

[[record]]
molecule = "O=C(Nc1ccc(F)cc1)c1c(NC(=O)C(F)(F)F)sc2c1CCCCC2"
measured_target = "CAKI-1 renal"
quantity_kind = "log10 of TGI"
recorded_measurement = 0.71

[[record]]
molecule = "Cc1ccc(OCC2OC(n3cnc4nc(Cl)nc(Cl)c43)CC2Oc2ccc(C)cc2)cc1 (configuration not stated)"
measured_target = "CAKI-1 renal"
quantity_kind = "log10 of TGI"
recorded_measurement = 0.99

[[record]]
molecule = "COc1cc(OC)c(OC)cc1/C=C\\c1nccc2ccccc12"
measured_target = "CAKI-1 renal"
quantity_kind = "log10 of TGI"
recorded_measurement = 1.83

[[record]]
molecule = "COc1ccc2c(Nc3ccc(NS(C)(=O)=O)cc3)c3ccccc3nc2c1"
measured_target = "CAKI-1 renal"
quantity_kind = "log10 of TGI"
recorded_measurement = 0.75

[[record]]
molecule = "CC(C)c1ccc(C(=O)Nc2sc3c(c2C#N)CCC(=O)C3)cc1"
measured_target = "CAKI-1 renal"
quantity_kind = "log10 of TGI"
recorded_measurement = 0.29

[[record]]
molecule = "CCOC(=O)c1c(Br)c(-c2ccc(Br)cc2)c(Br)n1C"
measured_target = "CAKI-1 renal"
quantity_kind = "log10 of TGI"
recorded_measurement = 1.88

[[record]]
molecule = "O=C1C=C(Br)C(=O)C12CCc1ccccc12 (configuration not stated)"
measured_target = "CAKI-1 renal"
quantity_kind = "log10 of TGI"
recorded_measurement = 1.21

[[record]]
molecule = "ClC(Cl)(Cl)C1=N[C@H]2[C@H](Br)[C@@H]3O[C@@H](c4ccccc4)[C@H](c4ccccc4)O[C@@H]3[C@H]2O1"
measured_target = "CAKI-1 renal"
quantity_kind = "log10 of TGI"
recorded_measurement = 1.51

[[record]]
molecule = "CCOC(=O)c1cc(C(=O)c2ccccc2)n2nc(-c3ccc(Cl)cc3)ccc12"
measured_target = "CAKI-1 renal"
quantity_kind = "log10 of TGI"
recorded_measurement = 1.91


###

Test system: HL-60(TB) leukemia
Experiment: NCI tumour cell line growth inhibition, 48 h
quantity_kind: TGI (µM)

[[record]]
molecule = "Cc1ccc(N=Nc2c(O)ccc3cc(S(=O)(=O)O)ccc23)c(C)c1"
bound_type = ">"
recorded_measurement = 100

[[record]]
molecule = "C=C1C(=O)OC2CC1C(O)C/C(C)=C/CC/C(C)=C/C(O)CC2C (centres undefined)"
bound_type = "="
recorded_measurement = 1.32

[[record]]
molecule = "COc1ccc2c(Nc3ccc(NS(C)(=O)=O)cc3)c3ccccc3nc2c1"
bound_type = "="
recorded_measurement = 4.45

[[record]]
molecule = "COC(=O)c1c2c(c(C)[n+]([O-])c1C)C(=O)C=C(NCc1ccc(F)c(F)c1)C2=O"
bound_type = "="
recorded_measurement = 1.02

[[record]]
molecule = "O=C(O)/C(=C/c1c(O)ccc2ccccc12)c1csc(-c2nc(/C(=C\\c3c(O)ccc4ccccc34)C(=O)O)cs2)n1"
bound_type = "="
recorded_measurement = 26.4

[[record]]
molecule = "N=C(N=C(N)N)N1CCN(c2ccncc2)CC1"
bound_type = ">"
recorded_measurement = 1000

[[record]]
molecule = "NC(=Nc1ccc(O)cc1)S(=O)(=O)O"
bound_type = ">"
recorded_measurement = 100

[[record]]
molecule = "CC(C)=CC(=O)O[C@H]1C(=O)O[C@@H]2C[C@H]3[C@H](C)C(=O)C(O[C@@H]4O[C@H](CO)[C@@H](O)[C@H](O)[C@H]4O)=C[C@]3(C)[C@H]3[C@@H](O)[C@H](O)[C@]4(C(=O)O)OC[C@]32[C@@H]14"
bound_type = ">"
recorded_measurement = 100

[[record]]
molecule = "O=c1[nH]nc(-c2ccccc2)n1/N=C/c1ccncc1"
bound_type = ">"
recorded_measurement = 100


###

System: HOP-18 NSCLC
Test: NCI tumour cell line growth inhibition, 48 h
quantity_kind: TGI

[[record]]
compound = "COc1cccc(NC(=O)CC(=O)N2N=C(N(CCC#N)c3ccccc3C)CC2c2ccccc2)c1 (centres undefined)"
measured_target = "HOP-18 NSCLC"
recorded_measurement = "> 100 µM"

[[record]]
compound = "CC(=O)O[C@H]1CC[C@@]2(C)C(=CC[C@H]3C4=CC=C(C(C)=O)[C@@]4(C)CCC32)C1 (some centres undefined)"
measured_target = "HOP-18 NSCLC"
recorded_measurement = "> 100 µM"

[[record]]
compound = "Cn1ccn2c3nc4ccccc4nc3c(=O)c(C#N)c12"
measured_target = "HOP-18 NSCLC"
recorded_measurement = "> 100 µM"

[[record]]
compound = "COc1cc2noc(-c3ccccc3)c2cc1OC"
measured_target = "HOP-18 NSCLC"
recorded_measurement = "> 100 µM"

[[record]]
compound = "CCCCCCCCCCCCCCCCSCC(COC)COP(=O)([O-])OCC[N+](C)(C)C (centres undefined)"
measured_target = "HOP-18 NSCLC"
recorded_measurement = "16.5 µM"

[[record]]
compound = "O=c1cc2ccccc2nn1Cc1ccccc1Cl"
measured_target = "HOP-18 NSCLC"
recorded_measurement = "> 100 µM"

[[record]]
compound = "O=C(NCCCCCCNC(=O)n1cc(F)c(=O)[nH]c1=O)NCCCOCCOCCCNC(=O)C(O)C(O)C(O)C(O)CO (centres undefined)"
measured_target = "HOP-18 NSCLC"
recorded_measurement = "> 2.5 µM"

[[record]]
compound = "CCNC(=O)C#CC(=O)NCC"
measured_target = "HOP-18 NSCLC"
recorded_measurement = "> 100 µM"

[[record]]
compound = "Cc1cc(O)c2c(c1O)C(=O)C13C(=C2O)C(=O)C2C(O)C1C1C(O)C3C(=O)C3=C(O)c4c(O)cc(C)c(O)c4C(=O)C321 (centres undefined)"
measured_target = "HOP-18 NSCLC"
recorded_measurement = "1.17 µM"

[[record]]
compound = "CC(=O)OCCOCNC(=S)N/N=C(\\C)c1cnc2ccccc2n1"
measured_target = "HOP-18 NSCLC"
recorded_measurement = "> 100 µM"

[[record]]
compound = "C=C1C(=O)OC2(C)C3CCC(C3)C12 (centres undefined)"
measured_target = "HOP-18 NSCLC"
recorded_measurement = "> 100 µM"

[[record]]
compound = "COc1c(C(=O)O)oc2c(OC)cccc12"
measured_target = "HOP-18 NSCLC"
recorded_measurement = "> 100 µM"

[[record]]
compound = "CCCCCCCC(=O)OC(CBr)COC(=O)C(C)(C)C (centres undefined)"
measured_target = "HOP-18 NSCLC"
recorded_measurement = "> 100 µM"

[[record]]
compound = "Cn1c(=O)nc2n(-c3cccc(F)c3)c3ccccc3nc-2c1=O"
measured_target = "HOP-18 NSCLC"
recorded_measurement = "> 100 µM"

